- Tested on: HOP-62
- protocol notes: cells
- conditions: Homo sapiens, HOP-62, 48 h
Can you tell me GI50 for the items I'm about to list?
Answers are plain numbers, in µM.

{"compound": "CN(C)c1nc(NCCNS(=O)(=O)c2ccc(C(=O)/C=C/c3ccccc3)cc2)nc(N2CCOCC2)n1 [23a]", "observable": "GI50", "unit annotation": "µM", "assay value": 16.4}
{"compound": "COc1cc(/C=C/C(=O)c2ccc(S(=O)(=O)NCCNc3nc(Nc4ccc(F)cc4)nc(N(C)C)n3)cc2)cc(OC)c1OC [24d]", "observable": "GI50", "unit annotation": "µM", "assay value": 14.1}

Hey, quick one: what's GI50 for each of these?
1. CN(C)c1nc(NCCNS(=O)(=O)c2ccc(C3=Nc4c(N)nc(N)nc4NC(c4ccc(F)cc4)C3)cc2)nc(Nc2ccc(F)cc2)n1 (centres unmarked) [31f]
2. Nc1nc(N)c2c(n1)NC(c1ccc(F)cc1)CC(c1ccc(Nc3nc(NCCO)nc(Nc4ccc(Cl)cc4)n3)cc1)=N2 (centres unmarked) [33f]
3. CN(C)c1nc(NCCNS(=O)(=O)c2ccc(C3=Nc4c(N)nc(N)nc4NC(c4ccc(C(F)(F)F)cc4)C3)cc2)nc(N2CCOCC2)n1 (centres unmarked) [30g]
4. CN(C)c1nc(NCCNS(=O)(=O)c2ccc(C3=Nc4c(N)nc(N)nc4NC(c4ccccc4)C3)cc2)nc(Nc2ccc(F)cc2)n1 (centres unmarked) [31a]
5. Cc1ccc(/C=C/C(=O)c2ccc(S(=O)(=O)NCCNc3nc(Nc4ccc(F)cc4)nc(N(C)C)n3)cc2)cc1 [24b]

[A]
96
1.77
50.7
99.7
15.3

Hey, quick one: what's GI50 for each of these?
1. CN(C)c1nc(NCCNS(=O)(=O)c2ccc(C(=O)/C=C/c3ccc(C(F)(F)F)cc3)cc2)nc(Nc2ccc(F)cc2)n1 [24g]
2. CN(C)c1nc(NCCNS(=O)(=O)c2ccc(C3=Nc4c(N)nc(N)nc4NC(c4ccc(C(F)(F)F)cc4)C3)cc2)nc(Nc2ccc(F)cc2)n1 (centres unmarked) [31g]
3. Nc1nc(N)c2c(n1)NC(c1ccccc1)CC(c1ccc(Nc3nc(NCCO)nc(Nc4ccc(Cl)cc4)n3)cc1)=N2 (centres unmarked) [33a]
4. CN(C)c1nc(NCCNS(=O)(=O)c2ccc(C(=O)/C=C/c3ccccc3)cc2)nc(Nc2ccc(F)cc2)n1 [24a]

[A]
[13.6, 31.4, 1.74, 11.8]

[Q] Record request: GI50 value, item CN(C)c1nc(NCCNS(=O)(=O)c2ccc(C(=O)/C=C/c3ccc(C(F)(F)F)cc3)cc2)nc(N2CCOCC2)n1 [23g]
[A] 17

###

Below are compounds with their GI50 as measured on ACHN.
One number for each entry, in µM.

{"compound": "Nc1nc(N)c2c(n1)NC(c1ccc(F)cc1)CC(c1ccc(Nc3nc(NCCO)nc(Nc4ccc(Cl)cc4)n3)cc1)=N2 (stereo not shown) [33f]", "GI50 [µM]": 3.22}

Now for a further compound.
[Q] ACHN / GI50 / Nc1nc(N)c2c(n1)NC(c1ccc(Cl)cc1)CC(c1ccc(Nc3nc(NCCO)nc(Nc4ccc(Cl)cc4)n3)cc1)=N2 (stereo not shown) [33e] : value?
[A] 4.69

###

- Test system: MDA-MB-468
- protocol notes: cells
- conditions: Homo sapiens, MDA-MB-468, 48 h
observable: GI50 (µM)
Numbers only, in µM.

Some solved cases for reference:
{"compound": "COc1cc(C2CC(c3ccc(Cl)cc3)=Nc3c(N)nc(N)nc3N2)ccc1Oc1nc(Nc2ccc(F)cc2)nc(N(C)C)n1 (centres unmarked) [29e]", "unit annotation": "µM", "assay value": 17.8}
{"compound": "CN(C)c1nc(NCCNS(=O)(=O)c2ccc(C(=O)/C=C/c3ccc(F)cc3)cc2)nc(Nc2ccc(F)cc2)n1 [24f]", "unit annotation": "µM", "assay value": 2.55}

Hey, quick one: what's GI50 for each of these?
1. COc1cc(/C=C/C(=O)c2ccc(C)cc2)ccc1Oc1nc(NCCO)nc(N2CCOCC2)n1 [20b]
2. CN(C)c1nc(NCCNS(=O)(=O)c2ccc(C(=O)/C=C/c3ccc(F)cc3)cc2)nc(N2CCOCC2)n1 [23f]
3. CN(C)c1nc(NCCNS(=O)(=O)c2ccc(C3=Nc4c(N)nc(N)nc4NC(c4ccc(Cl)cc4)C3)cc2)nc(Nc2ccc(F)cc2)n1 (centres unmarked) [31e]
4. COc1cc(/C=C/C(=O)c2cc(OC)c(OC)c(OC)c2)ccc1Oc1nc(NCCO)nc(N2CCOCC2)n1 [20d]
5. COc1cc(/C=C/C(=O)c2ccc(S(=O)(=O)NCCNc3nc(N(C)C)nc(N4CCOCC4)n3)cc2)cc(OC)c1OC [23d]

[A]
1: 1.98; 2: 8.08; 3: 1.92; 4: 1.71; 5: 1.69

###

- Tested on: SNB-19
- protocol notes: cells
- conditions: Homo sapiens, SNB-19, 48 h, read-out: LC50
Can you tell me CC50 for the items I'm about to list?
One number for each entry, in µM.

{"compound": "CN(C)c1nc(NCCNS(=O)(=O)c2ccc(C(=O)/C=C/c3ccc(Cl)cc3)cc2)nc(Nc2ccc(F)cc2)n1 [24e]", "CC50, µM": 21.3}
{"compound": "CN(C)c1nc(NCCNS(=O)(=O)c2ccc(C(=O)/C=C/c3ccc(F)cc3)cc2)nc(N2CCOCC2)n1 [23f]", "CC50, µM": 52.1}
{"compound": "COc1cc(/C=C/C(=O)c2cc(OC)c(OC)c(OC)c2)ccc1Oc1nc(Nc2ccc(F)cc2)nc(N(C)C)n1 [21d]", "CC50, µM": 18.5}

[Q] Record request: CC50 value, item CN(C)c1nc(NCCNS(=O)(=O)c2ccc(C(=O)/C=C/c3ccc(C(F)(F)F)cc3)cc2)nc(Nc2ccc(F)cc2)n1 [24g]
[A] 24.3

###

- System: MOLT-4
- protocol notes: cells
- conditions: Homo sapiens, MOLT-4, 48 h, read-out: LC50
observable: CC50

{"molecule": "CN(C)c1nc(NCCNS(=O)(=O)c2ccc(C(=O)/C=C/c3ccc(Cl)cc3)cc2)nc(N2CCOCC2)n1 [23e]", "CC50": "> 100 µM"}
{"molecule": "CN(C)c1nc(NCCNS(=O)(=O)c2ccc(C(=O)/C=C/c3ccc(F)cc3)cc2)nc(Nc2ccc(F)cc2)n1 [24f]", "CC50": "6.49 µM"}

Hey, quick one: what's CC50 for each of these?
1. Nc1nc(N)c2c(n1)NC(c1ccc(C(F)(F)F)cc1)CC(c1ccc(Nc3nc(NCCO)nc(Nc4ccc(Cl)cc4)n3)cc1)=N2 (stereo not drawn) [33g]
2. CN(C)c1nc(NCCNS(=O)(=O)c2ccc(C3=Nc4c(N)nc(N)nc4NC(c4ccc(C(F)(F)F)cc4)C3)cc2)nc(N2CCOCC2)n1 (stereo not drawn) [30g]
3. CN(C)c1nc(NCCNS(=O)(=O)c2ccc(C3=Nc4c(N)nc(N)nc4NC(c4ccc(C(F)(F)F)cc4)C3)cc2)nc(Nc2ccc(F)cc2)n1 (stereo not drawn) [31g]
4. COc1cc(C2CC(c3ccc(C(F)(F)F)cc3)=Nc3c(N)nc(N)nc3N2)ccc1Oc1nc(Nc2ccc(F)cc2)nc(N(C)C)n1 (stereo not drawn) [29g]

[A]
1. > 100 µM
2. > 100 µM
3. 86 µM
4. > 100 µM

###

- Test system: A549/ATCC
- protocol notes: cells
- conditions: Homo sapiens, A549, 48 h, read-out: LC50
observable: CC50
Lab note: write values as number then unit, every time.

Some solved cases for reference:
{"compound": "CN(C)c1nc(NCCNS(=O)(=O)c2ccc(C(=O)/C=C/c3ccc(C(F)(F)F)cc3)cc2)nc(N2CCOCC2)n1 [23g]", "CC50": "62.3 µM"}
{"compound": "CN(C)c1nc(NCCNS(=O)(=O)c2ccc(C(=O)/C=C/c3ccc(Cl)cc3)cc2)nc(Nc2ccc(F)cc2)n1 [24e]", "CC50": "17.4 µM"}
{"compound": "CN(C)c1nc(NCCNS(=O)(=O)c2ccc(C3=Nc4c(N)nc(N)nc4NC(c4ccc(C(F)(F)F)cc4)C3)cc2)nc(Nc2ccc(F)cc2)n1 (stereo not shown) [31g]", "CC50": "86 µM"}

[Q] Record request: CC50 value, item CN(C)c1nc(NCCNS(=O)(=O)c2ccc(C(=O)/C=C/c3ccc(Cl)cc3)cc2)nc(N2CCOCC2)n1 [23e]
[A] 56.4 µM

###

Below are molecules with their GI50 as measured on SK-OV-3.
One number for each entry, in µM.

Some solved cases for reference:
{"molecule": "Cc1ccc(/C=C/C(=O)c2ccc(S(=O)(=O)NCCNc3nc(Nc4ccc(F)cc4)nc(N(C)C)n3)cc2)cc1 [24b]", "GI50, µM": 17}
{"molecule": "Nc1nc(N)c2c(n1)NC(c1ccc(C(F)(F)F)cc1)CC(c1ccc(Nc3nc(NCCO)nc(Nc4ccc(Cl)cc4)n3)cc1)=N2 (centres unmarked) [33g]", "GI50, µM": 1.83}
{"molecule": "CN(C)c1nc(NCCNS(=O)(=O)c2ccc(C(=O)/C=C/c3ccc(F)cc3)cc2)nc(N2CCOCC2)n1 [23f]", "GI50, µM": 13.8}
{"molecule": "CN(C)c1nc(NCCNS(=O)(=O)c2ccc(C3=Nc4c(N)nc(N)nc4NC(c4ccc(C(F)(F)F)cc4)C3)cc2)nc(N2CCOCC2)n1 (centres unmarked) [30g]", "GI50, µM": 69.7}
{"molecule": "COc1ccc(/C=C/C(=O)c2ccc(S(=O)(=O)NCCNc3nc(Nc4ccc(F)cc4)nc(N(C)C)n3)cc2)cc1 [24c]", "GI50, µM": 13.9}
{"molecule": "CN(C)c1nc(NCCNS(=O)(=O)c2ccc(C(=O)/C=C/c3ccc(C(F)(F)F)cc3)cc2)nc(N2CCOCC2)n1 [23g]", "GI50, µM": 14.7}
{"molecule": "Nc1nc(N)c2c(n1)NC(c1ccc(Cl)cc1)CC(c1ccc(Nc3nc(NCCO)nc(Nc4ccc(Cl)cc4)n3)cc1)=N2 (centres unmarked) [33e]", "GI50, µM": 14.8}
{"molecule": "COc1cc(/C=C/C(=O)c2ccc(S(=O)(=O)NCCNc3nc(Nc4ccc(F)cc4)nc(N(C)C)n3)cc2)cc(OC)c1OC [24d]", "GI50, µM": 21.8}

Hey, quick one: what's GI50 for each of these?
1. CN(C)c1nc(NCCNS(=O)(=O)c2ccc(C(=O)/C=C/c3ccc(F)cc3)cc2)nc(Nc2ccc(F)cc2)n1 [24f]
2. Nc1nc(N)c2c(n1)NC(c1ccccc1)CC(c1ccc(Nc3nc(NCCO)nc(Nc4ccc(Cl)cc4)n3)cc1)=N2 (centres unmarked) [33a]
3. CN(C)c1nc(NCCNS(=O)(=O)c2ccc(C(=O)/C=C/c3ccc(Cl)cc3)cc2)nc(Nc2ccc(F)cc2)n1 [24e]

[A]
8.23
17.7
11.5
